Kindly supply the reported viability, T/C values for the records listed here.
# Test system: 485368-065-R4-J2-PDC spheroids with HUVEC/MSC, viability
# Test protocol: Anticancer human tumor 485368-065-R4-J2-PDC patient-derived pancreatic carcinoma cell line growth inhibition [CLK]
# Condition parameters: second compound 0.0316 µM; first compound 3.16 µM; hits give low values
Please state the figure in %; there is no need to write the unit.

Return reported viability, T/C; argument: C=C(F)C(=O)N1CCN(c2nc(OCC3CCCN3C)nc3c2CCN(c2cccc4cccc(Cl)c24)C3)CC1CC#N (stereo not given) + CNC(=O)c1ccc(Nc2nc(OC3CCCC3)c3c(-c4ccc5nc(C)oc5c4)c[nH]c3n2)c(OC)c1 115

Return reported viability, T/C; argument: CC1COCCN1c1cc(C2(S(C)(=N)=O)CC2)nc(-c2ccnc3[nH]ccc23)n1 (stereo not given) + CN1CCN(c2cc(C(=O)Nc3cc4cc(-c5cnn(C)c5)ccc4cn3)ccn2)CC1 118

Return reported viability, T/C; argument: CC(CO)NC(=O)c1cc(-c2ccc(Cl)cc2)nn(-c2cnn(C)c2)c1=O (stereo not given) + CNC(=O)c1ccc(Nc2nc(OC3CCCC3)c3c(-c4ccc5nc(C)oc5c4)c[nH]c3n2)c(OC)c1 89.8

Return reported viability, T/C; argument: CC1COCCN1c1cc(C2(S(C)(=N)=O)CC2)nc(-c2ccnc3[nH]ccc23)n1 (stereo not given) + CNC(=O)c1ccc(Nc2nc(OC3CCCC3)c3c(-c4ccc5nc(C)oc5c4)c[nH]c3n2)c(OC)c1 99.2

Return reported viability, T/C; argument: C#Cc1c(F)ccc2cc(O)cc(-c3ncc4c(N5CC6CCC(C5)N6)nc(OCC56CCCN5CC(F)C6)nc4c3F)c12 (stereo not given) + CNC(=O)c1ccc(Nc2nc(OC3CCCC3)c3c(-c4ccc5nc(C)oc5c4)c[nH]c3n2)c(OC)c1 104

* * *

# Test system: 485368-065-R4-J2-PDC spheroids with HUVEC/MSC, viability
# Test protocol: Anticancer human tumor 485368-065-R4-J2-PDC cell line growth inhibition [CLK];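 note: spheroids exposed to compounds for seven days; 100% = DMSO vehicle control wells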
# Condition parameters: second compound 0.0316 µM; first compound 0.1 µM; hits give low values
Kindly supply the reported viability, T/C values for the records listed here.
Please state the figure in %; there is no need to write the unit.

Return reported viability, T/C; argument: C#Cc1c(F)ccc2cc(O)cc(-c3ncc4c(N5CC6CCC(C5)N6)nc(OCC56CCCN5CC(F)C6)nc4c3F)c12 (stereo unspecified) + CN1CCN(c2cc(C(=O)Nc3cc4cc(-c5cnn(C)c5)ccc4cn3)ccn2)CC1 106

Return reported viability, T/C; argument: CCCS(=O)(=O)Nc1ccc(F)c(C(=O)c2c[nH]c3ncc(-c4ccc(Cl)cc4)cc23)c1F + CN1CCN(c2cc(C(=O)Nc3cc4cc(-c5cnn(C)c5)ccc4cn3)ccn2)CC1 98.8

Return reported viability, T/C; argument: COc1c(OCCCN2CCOCC2)ccc2c3n(c(=NC(=O)c4cnc(N)nc4)nc12)CCN3 + CN1CCN(c2cc(C(=O)Nc3cc4cc(-c5cnn(C)c5)ccc4cn3)ccn2)CC1 71.3

Return reported viability, T/C; argument: C=CC(=O)N1CCN(c2nc(=O)n(-c3c(C)ccnc3C(C)C)c3nc(-c4c(O)cccc4F)c(F)cc23)C(C)C1 (stereo unspecified) + CN1CCN(c2cc(C(=O)Nc3cc4cc(-c5cnn(C)c5)ccc4cn3)ccn2)CC1 106

Return reported viability, T/C; argument: CC(CO)NC(=O)c1cc(-c2ccc(Cl)cc2)nn(-c2cnn(C)c2)c1=O (stereo unspecified) + CNC(=O)c1ccc(Nc2nc(OC3CCCC3)c3c(-c4ccc5nc(C)oc5c4)c[nH]c3n2)c(OC)c1 94.3

Return reported viability, T/C; argument: Cn1ncnc1[C@H]1c2n[nH]c(=O)c3cc(F)cc(c23)N[C@@H]1c1ccc(F)cc1 + CNC(=O)c1ccc(Nc2nc(OC3CCCC3)c3c(-c4ccc5nc(C)oc5c4)c[nH]c3n2)c(OC)c1 90.8

Return reported viability, T/C; argument: CC(Nc1ccc2c(c1)OCCn1cc(N3C(=O)OCC3C(F)F)nc1-2)C(N)=O (stereo unspecified) + CN1CCN(c2cc(C(=O)Nc3cc4cc(-c5cnn(C)c5)ccc4cn3)ccn2)CC1 109

Return reported viability, T/C; argument: CC1(C)CCC(CN2CCN(c3ccc(C(=O)NS(=O)(=O)c4ccc(NCC5CCOCC5)c([N+](=O)[O-])c4)c(Oc4cnc5[nH]ccc5c4)c3)CC2)=C(c2ccc(Cl)cc2)C1 + CNC(=O)c1ccc(Nc2nc(OC3CCCC3)c3c(-c4ccc5nc(C)oc5c4)c[nH]c3n2)c(OC)c1 95.1

Return reported viability, T/C; argument: C=CC(=O)N1CCN(c2nc(=O)n(-c3c(C)ccnc3C(C)C)c3nc(-c4c(O)cccc4F)c(F)cc23)C(C)C1 (stereo unspecified) + CNC(=O)c1ccc(Nc2nc(OC3CCCC3)c3c(-c4ccc5nc(C)oc5c4)c[nH]c3n2)c(OC)c1 110

Return reported viability, T/C; argument: O=c1[nH]cc(F)c(=O)[nH]1 + CNC(=O)c1ccc(Nc2nc(OC3CCCC3)c3c(-c4ccc5nc(C)oc5c4)c[nH]c3n2)c(OC)c1 98.8

Return reported viability, T/C; argument: C=C(F)C(=O)N1CCN(c2nc(OCC3CCCN3C)nc3c2CCN(c2cccc4cccc(Cl)c24)C3)CC1CC#N (stereo unspecified) + CN1CCN(c2cc(C(=O)Nc3cc4cc(-c5cnn(C)c5)ccc4cn3)ccn2)CC1 116

* * *

# System: 485368-065-R4-J2-PDC spheroids with HUVEC/MSC, viability
# Test protocol: Anticancer human tumor 485368-065-R4-J2-PDC cell line growth inhibition [CLK];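 note: spheroids exposed to compounds for seven days; 100% = DMSO vehicle control wells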
# Condition parameters: second compound 3.16 µM; first compound 0.1 µM; hits give low values
Heads up, the class ranges for viability, T/C are lower band = under 3%, central band = from 3% up to 70%, upper band = 70% and over

Record CCCS(=O)(=O)Nc1ccc(F)c(C(=O)c2c[nH]c3ncc(-c4ccc(Cl)cc4)cc23)c1F + CNC(=O)c1ccc(Nc2nc(OC3CCCC3)c3c(-c4ccc5nc(C)oc5c4)c[nH]c3n2)c(OC)c1 — which class? upper band

Record CCN1CCN(Cc2ccc(Nc3ncc(F)c(-c4cc(F)c5nc(C)n(C(C)C)c5c4)n3)nc2)CC1 + CN1CCN(c2cc(C(=O)Nc3cc4cc(-c5cnn(C)c5)ccc4cn3)ccn2)CC1 — which class? central band

Record Nc1ccn(C2OC(CO)C(O)C2(F)F)c(=O)n1 (centres undefined) + CNC(=O)c1ccc(Nc2nc(OC3CCCC3)c3c(-c4ccc5nc(C)oc5c4)c[nH]c3n2)c(OC)c1 — which class? central band

Record CCc1c2c(nc3ccc(O)cc13)-c1cc3c(c(=O)n1C2)COC(=O)[C@]3(O)CC + CNC(=O)c1ccc(Nc2nc(OC3CCCC3)c3c(-c4ccc5nc(C)oc5c4)c[nH]c3n2)c(OC)c1 — which class? central band

Record CC1(C)CCC(CN2CCN(c3ccc(C(=O)NS(=O)(=O)c4ccc(NCC5CCOCC5)c([N+](=O)[O-])c4)c(Oc4cnc5[nH]ccc5c4)c3)CC2)=C(c2ccc(Cl)cc2)C1 + CNC(=O)c1ccc(Nc2nc(OC3CCCC3)c3c(-c4ccc5nc(C)oc5c4)c[nH]c3n2)c(OC)c1 — which class? upper band

Record CC1(C)CCC(CN2CCN(c3ccc(C(=O)NS(=O)(=O)c4ccc(NCC5CCOCC5)c([N+](=O)[O-])c4)c(Oc4cnc5[nH]ccc5c4)c3)CC2)=C(c2ccc(Cl)cc2)C1 + CN1CCN(c2cc(C(=O)Nc3cc4cc(-c5cnn(C)c5)ccc4cn3)ccn2)CC1 — which class? lower band

Record COc1cccc2c1C(=O)c1c(O)c3c(c(O)c1C2=O)CC(O)(C(=O)CO)CC3OC1CC(N)C(O)C(C)O1 (centres undefined) + CNC(=O)c1ccc(Nc2nc(OC3CCCC3)c3c(-c4ccc5nc(C)oc5c4)c[nH]c3n2)c(OC)c1 — which class? central band

Record CC(CO)NC(=O)c1cc(-c2ccc(Cl)cc2)nn(-c2cnn(C)c2)c1=O (centres undefined) + CN1CCN(c2cc(C(=O)Nc3cc4cc(-c5cnn(C)c5)ccc4cn3)ccn2)CC1 — which class? lower band

Record COc1c(OCCCN2CCOCC2)ccc2c3n(c(=NC(=O)c4cnc(N)nc4)nc12)CCN3 + CNC(=O)c1ccc(Nc2nc(OC3CCCC3)c3c(-c4ccc5nc(C)oc5c4)c[nH]c3n2)c(OC)c1 — which class? central band

Record COC1C=CCC(C)C(C)S(=O)(=O)NC(=O)c2ccc3c(c2)N(CC2CCC21)CC1(CCCc2cc(Cl)ccc21)CO3 (centres undefined) + CN1CCN(c2cc(C(=O)Nc3cc4cc(-c5cnn(C)c5)ccc4cn3)ccn2)CC1 — which class? central band

Record O=c1[nH]cc(F)c(=O)[nH]1 + CN1CCN(c2cc(C(=O)Nc3cc4cc(-c5cnn(C)c5)ccc4cn3)ccn2)CC1 — which class? lower band

Record CC(=O)O[C@H]1C(=O)[C@@]2(C)[C@H]([C@H](OC(=O)c3ccccc3)[C@]3(O)C[C@H](OC(=O)[C@H](O)[C@@H](NC(=O)c4ccccc4)c4ccccc4)C(C)=C1C3(C)C)[C@]1(OC(C)=O)CO[C@@H]1C[C@@H]2O + CNC(=O)c1ccc(Nc2nc(OC3CCCC3)c3c(-c4ccc5nc(C)oc5c4)c[nH]c3n2)c(OC)c1 — which class? upper band

Record C#Cc1c(F)ccc2cc(O)cc(-c3ncc4c(N5CC6CCC(C5)N6)nc(OCC56CCCN5CC(F)C6)nc4c3F)c12 (centres undefined) + CN1CCN(c2cc(C(=O)Nc3cc4cc(-c5cnn(C)c5)ccc4cn3)ccn2)CC1 — which class? lower band

Record Nc1ccccc1NC(=O)c1ccc(CNC(=O)OCc2cccnc2)cc1 + CN1CCN(c2cc(C(=O)Nc3cc4cc(-c5cnn(C)c5)ccc4cn3)ccn2)CC1 — which class? lower band

Record Cn1ncnc1[C@H]1c2n[nH]c(=O)c3cc(F)cc(c23)N[C@@H]1c1ccc(F)cc1 + CNC(=O)c1ccc(Nc2nc(OC3CCCC3)c3c(-c4ccc5nc(C)oc5c4)c[nH]c3n2)c(OC)c1 — which class? central band

Record CC(Nc1ccc2c(c1)OCCn1cc(N3C(=O)OCC3C(F)F)nc1-2)C(N)=O (centres undefined) + CNC(=O)c1ccc(Nc2nc(OC3CCCC3)c3c(-c4ccc5nc(C)oc5c4)c[nH]c3n2)c(OC)c1 — which class? central band

Record CC(CO)NC(=O)c1cc(-c2ccc(Cl)cc2)nn(-c2cnn(C)c2)c1=O (centres undefined) + CNC(=O)c1ccc(Nc2nc(OC3CCCC3)c3c(-c4ccc5nc(C)oc5c4)c[nH]c3n2)c(OC)c1 — which class? central band
